Test system: CCRIS mutagenicity, Ames/micronucleus/aberration tests
assayInfo: CCRIS mutagenicity studies
assayContext: Test System: AMES SALMONELLA TYPHIMURIUM; Strain/Indicator: TA100; Metabolic Activation: NONE; Method: STANDARD PLATE
Activity calls are given as the source filed them. The rule behind the calls is not given here.
Returns: one label drawn from active, inactive

molecule | targetOrTestSystem | cat
O=C(O)c1ccc([N+](=O)[O-])o1 | CCRIS mutagenicity, Ames/micronucleus/aberration tests | active

Req: Just curious, what result did N[C@@H](CS/C(Cl)=C(\Cl)C(Cl)=C(Cl)Cl)C(=O)O get here?
Resp: active

Req: Just curious, what result did O=C(c1ccccc1)n1ncc(Cl)c(Cl)c1=O get here?
Resp: inactive

###

Tested on: CCRIS mutagenicity, Ames/micronucleus/aberration tests
assayInfo: CCRIS mutagenicity studies
assayContext: Test System: AMES SALMONELLA TYPHIMURIUM; Strain/Indicator: TA100; Metabolic Activation: HAMSTER, LIVER, S-9, PCB; Method: PREINCUBATION
Description: The CCRIS database contains chemical records with carcinogenicity, mutagenicity, tumor promotion, and tumor inhibition test results. It was developed by the National Cancer Institute (NCI). Data are derived from studies cited in primary journals, current awareness tools, NCI reports, and other sources. Test results have been reviewed by experts in carcinogenesis and mutagenesis. CCRIS provides historical information from the years 1985 - 2011. It is no longer updated. […]
Active and inactive are the calls of the source. The rule behind the calls is not given here.
Returns: one label drawn from active, inactive

Examples with answers:
structureNotation | cat
COc1ccc2cc([C@H](C)C(=O)O)ccc2c1 | inactive
Cc1cc(=O)n(-c2ccccc2)n1C | inactive
CC(C)[C@@](O)(C(=O)OCC1=CCN2CC[C@@H](O)[C@@H]12)[C@H](C)O | inactive
O=C(O)c1ccccc1O | inactive
CCOc1ccc(NC(C)=O)cc1 | active

Req: Just curious, what result did CC(C)[C@](O)(C(=O)O)[C@@H](C)O get here?
Resp: inactive

Req: Just curious, what result did OCC1=CCN2CC[C@@H](O)[C@@H]12 get here?
Resp: inactive

Req: Just curious, what result did CC(=O)Nc1ccccc1 get here?
Resp: inactive

###

System: CCRIS mutagenicity, Ames/micronucleus/aberration tests
assayInfo: CCRIS mutagenicity studies
assayContext: Test System: UDS HUMAN HEPATOCYTES; Strain/Indicator: THY INCORP; Metabolic Activation: NONE; Method: AUTORADIOGRAPHY
Calls of active or inactive are those of the source. No rule for the calls is given here.

compound | mutagenic call
C=CCOc1ccccc1OCC(O)CN(N=O)C(C)C (centres undefined) | active; positive
O=C1OC(O)C(C(Cl)Cl)=C1Cl (centres undefined) | active; positive
COCCc1ccc(OCC(O)CN(N=O)C(C)C)cc1 (centres undefined) | active; positive

###

Tested on: CCRIS mutagenicity, Ames/micronucleus/aberration tests
assayInfo: CCRIS mutagenicity studies
assayContext: Test System: AMES SALMONELLA TYPHIMURIUM; Strain/Indicator: TA98; Metabolic Activation: NONE; Method: PREINCUBATION
Activity calls are given as the source filed them. No rule for the calls is given here.
Returns: one label drawn from t for active, f for inactive

Req: Just curious, what result did CC(Cl)(Cl)[N+](=O)[O-] get here?
Resp: f

Req: Just curious, what result did Oc1ccc(-c2ccc(O)cc2)cc1 get here?
Resp: f

Req: Just curious, what result did Fc1c(F)c(F)c(Cl)c(F)c1F get here?
Resp: f

Req: Just curious, what result did BrCC(Br)C1CCC(Br)C(Br)C1 (configuration not stated) get here?
Resp: f

Req: Just curious, what result did C[C@@H]1COc2c(N3CCN(C)CC3)c(F)cc3c(=O)c(C(=O)O)cn1c23 get here?
Resp: f

###

System: CCRIS mutagenicity, Ames/micronucleus/aberration tests
assayInfo: CCRIS mutagenicity studies
assayContext: Test System: AMES SALMONELLA TYPHIMURIUM; Strain/Indicator: TA98; Metabolic Activation: RAT, LIVER, MICROSOMES; Method: PREINCUBATION
The source made the active and inactive calls. How the calls were made is not given here.
Returns: one label drawn from True for active, False for inactive

structureNotation | targetOrTestSystem | cat
Nc1ccc(N=Nc2ccccc2)cc1 | CCRIS mutagenicity, Ames/micronucleus/aberration tests | False
CC(=O)N(O)c1ccc(-c2ccccc2)cc1 | CCRIS mutagenicity, Ames/micronucleus/aberration tests | True
CCC(=O)N(O)c1ccc(-c2ccccc2)cc1 | CCRIS mutagenicity, Ames/micronucleus/aberration tests | True

Shift focus to the following entry.
Req: Just curious, what result did O=CN(O)c1ccc2ccccc2c1 get here?
Resp: True

###

System: CCRIS mutagenicity, Ames/micronucleus/aberration tests
assayInfo: CCRIS mutagenicity studies
assayContext: Test System: AMES SALMONELLA TYPHIMURIUM; Strain/Indicator: TA102; Metabolic Activation: RAT, LIVER, S-9, AROCLOR 1254; Method: PREINCUBATION
The source made the active and inactive calls. No rule for the calls is given here.
observedProperty: mutagenic call

structureNotation | targetOrTestSystem | mutagenic call
Nc1ccc2c(c1)CN1C(=O)c3ccccc3C1=N2 | CCRIS mutagenicity, Ames/micronucleus/aberration tests | active; positive
O=C/C=C/c1ccccc1 | CCRIS mutagenicity, Ames/micronucleus/aberration tests | inactive; negative
OCc1ccccc1 | CCRIS mutagenicity, Ames/micronucleus/aberration tests | inactive; negative
Cc1nccnc1C | CCRIS mutagenicity, Ames/micronucleus/aberration tests | inactive; negative
CN(N=O)C(N)=O | CCRIS mutagenicity, Ames/micronucleus/aberration tests | active; positive

Documented mutagenic call of CC1=C(O)C(=O)CC1 : inactive; negative

Documented mutagenic call of O=Cc1ccccc1 : inactive; negative

Documented mutagenic call of O=c1[nH]c(=O)n([C@H]2C[C@H](O)[C@@H](CO)O2)cc1/C=C/Br : inactive; negative

###

Tested on: CCRIS mutagenicity, Ames/micronucleus/aberration tests
assayInfo: CCRIS mutagenicity studies
assayContext: Test System: CHINESE HAMSTER V-79; Strain/Indicator: V-79/6-THIOGUANINE; Metabolic Activation: NONE; Method: SUSPENSION/PLATE
Active and inactive are the calls of the source. How the calls were made is not given here.
Returns: one label drawn from active, inactive

Examples with answers:
compound | targetOrTestSystem | cat
CCOc1ccc(NC(C)=O)cc1 | CCRIS mutagenicity, Ames/micronucleus/aberration tests | inactive
COS(C)(=O)=O | CCRIS mutagenicity, Ames/micronucleus/aberration tests | active
Nc1ccccc1 | CCRIS mutagenicity, Ames/micronucleus/aberration tests | inactive
CC(=O)[C@]1(O)Cc2c(O)c3c(c(O)c2[C@@H](O[C@H]2C[C@H](N)[C@H](O)[C@H](C)O2)C1)C(=O)c1ccccc1C3=O | CCRIS mutagenicity, Ames/micronucleus/aberration tests | active
COc1cccc2c1C(=O)c1c(O)c3c(c(O)c1C2=O)C[C@@](O)(C(C)=O)C[C@@H]3O[C@H]1C[C@H](N)[C@H](O)[C@H](C)O1 | CCRIS mutagenicity, Ames/micronucleus/aberration tests | inactive

Shift focus to the following entry.
Req: Just curious, what result did O=P1(N(CCCl)CCCl)NCCCO1 (stereo unspecified) get here?
Resp: inactive

###

System: CCRIS mutagenicity, Ames/micronucleus/aberration tests
assayInfo: CCRIS mutagenicity studies
assayContext: Test System: AMES SALMONELLA TYPHIMURIUM; Strain/Indicator: TA1535; Metabolic Activation: RAT, LIVER, S-9, AROCLOR 1254; Method: PREINCUBATION
Calls of active or inactive are those of the source. How the calls were made is not given here.
Returns: one label drawn from active, inactive

Examples with answers:
compound | targetOrTestSystem | cat
CCn1c2ccccc2c2cc(N)ccc21 | CCRIS mutagenicity, Ames/micronucleus/aberration tests | inactive
Fc1c(F)c(F)c(Cl)c(F)c1F | CCRIS mutagenicity, Ames/micronucleus/aberration tests | inactive
CCCCOCCOP(=O)(OCCOCCCC)OCCOCCCC | CCRIS mutagenicity, Ames/micronucleus/aberration tests | inactive
ClC=C(Cl)Cl | CCRIS mutagenicity, Ames/micronucleus/aberration tests | inactive
CN(C)C(=O)Nc1ccc(Cl)cc1 | CCRIS mutagenicity, Ames/micronucleus/aberration tests | inactive

Req: Just curious, what result did c1cc(OCC2CO2)cc(OCC2CO2)c1 (stereo not given) get here?
Resp: active

Req: Just curious, what result did CC(O)CN(CC(C)O)N=O (stereo not given) get here?
Resp: active

Req: Just curious, what result did BrCCBr get here?
Resp: active

Req: Just curious, what result did ClCC(Cl)CCl get here?
Resp: active

Req: Just curious, what result did Cc1ccccc1C get here?
Resp: inactive

###

Tested on: CCRIS mutagenicity, Ames/micronucleus/aberration tests
assayInfo: CCRIS mutagenicity studies
assayContext: Test System: AMES SALMONELLA TYPHIMURIUM; Strain/Indicator: TA100; Metabolic Activation: NONE; Method: STANDARD PLATE
Calls of active or inactive are those of the source. No rule for the calls is given here.
Returns: one label drawn from active, inactive

Examples with answers:
molecule | targetOrTestSystem | cat
CC1(C)[C@@H]2CC[C@@]1(C)C(=O)C2=O | CCRIS mutagenicity, Ames/micronucleus/aberration tests | inactive
NN(Cc1ccccc1)Cc1ccccc1 | CCRIS mutagenicity, Ames/micronucleus/aberration tests | inactive
O=[N+]([O-])c1cccc2nscc12 | CCRIS mutagenicity, Ames/micronucleus/aberration tests | active
c1ccc2nccnc2c1 | CCRIS mutagenicity, Ames/micronucleus/aberration tests | inactive
CC1=CCC(=O)O1 | CCRIS mutagenicity, Ames/micronucleus/aberration tests | inactive

Req: Just curious, what result did Cc1ccc(C)c2c3c(ccc12)C(O)C(O)C1OC31 (configuration not stated) get here?
Resp: active

Req: Just curious, what result did O=S(=O)(Oc1ccc(Cl)c(Cl)c1)c1cccc2cccnc12 get here?
Resp: inactive
